test system: protease from strain SRC002 (MTCC 5564); assay: Effect of inhibitors, metals and chemicals on protease activity; format: biochemical, Pseudomonas aeruginosa; settings: concentration not given; crude enzyme for the partial inhibitors
Square brackets hold non-standard residues; d marks the D form. Peptide text beside a SMILES is read from it. * marks the point of attachment. Sta = CC(C)C[C@H](N)[C@@H](O)CC(=O)O; Isovaleryl = CC(C)CC(=O)*
readout kind: effect on enzyme activity

Solved entries (count: 5):
| compound | assay value |
| --- | --- |
| CC(C)C[C@H](NC(=O)[C@H]1O[C@@H]1C(=O)O)C(=O)NCCCCN=C(N)N | no inhibitory effect |
| CC[C@@H](C)[C@@H](O)[C@H](C)C(=O)[C@H](C)/C=C(\C)C[C@H](C)[C@@H]1OC(=O)[C@H]1CC | no inhibitory effect |
| c1cnc2c(c1)ccc1cccnc12 | completely inhibited |
| O=C(O)CN(CCOCCOCCN(CC(=O)O)CC(=O)O)CC(=O)O | completely inhibited |
| CC(C)C[C@H](NP(=O)(O)O[C@@H]1O[C@@H](C)[C@H](O)[C@@H](O)[C@H]1O)C(=O)N[C@@H](Cc1c[nH]c2ccccc12)C(=O)O | completely inhibited |

Please find the next compound below.
Kindly note the recorded effect on enzyme activity for CC(C)CC(=O)N[C@H](C(=O)N[C@H](C(=O)N[C@@H](CC(C)C)[C@@H](O)CC(=O)N[C@@H](C)C(=O)N[C@@H](CC(C)C)[C@@H](O)CC(=O)O)C(C)C)C(C)C [Pepstatin] (Isovaleryl-VV[Sta]A[Sta]-OH) , which is no inhibitory effect
